Target: Cytochrome P450 2C8 (Homo sapiens)
Sequence (P10632 whole entry): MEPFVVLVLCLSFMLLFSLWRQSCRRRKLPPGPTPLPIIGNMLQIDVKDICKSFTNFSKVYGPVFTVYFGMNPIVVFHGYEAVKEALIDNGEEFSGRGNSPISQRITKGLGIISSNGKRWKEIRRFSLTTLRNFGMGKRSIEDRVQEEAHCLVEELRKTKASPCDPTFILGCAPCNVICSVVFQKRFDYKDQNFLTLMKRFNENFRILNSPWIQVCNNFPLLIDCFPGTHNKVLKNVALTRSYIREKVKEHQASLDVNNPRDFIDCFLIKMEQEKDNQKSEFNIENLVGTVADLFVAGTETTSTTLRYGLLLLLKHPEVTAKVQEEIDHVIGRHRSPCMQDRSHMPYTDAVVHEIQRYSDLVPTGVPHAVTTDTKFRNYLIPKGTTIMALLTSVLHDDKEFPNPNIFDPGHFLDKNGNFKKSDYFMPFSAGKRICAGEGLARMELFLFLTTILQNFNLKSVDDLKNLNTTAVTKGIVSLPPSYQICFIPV
outcome.measure: pIC50
Scale note: pIC50 = -log10(concentration in M).

What measured pIC50 is associated with COc1ccccc1CC[C@@H]1CCc2cc([C@H]3CC[C@](N)(CO)C3)ccc2C1 [UDIFITIMOD] on Cytochrome P450 2C8 (Homo sapiens)?
5.07

* * *

Please provide measured concentration at 24 h for the entries that follow.
assay: Drug metabolism in Balb/c mouse blood assessed as concentration of parent compound at 50 mg/kg, po measured at 24 hrs by LC-MS/MS analysis; type: ADME, organism-based; conditions: read-out: Ct
Field format: number, assumed nM, no unit text.

For the compound shown here, N[C@]1(CO)CC[C@H](c2ccc3c(c2)CC[C@@H](Cc2ccccc2)C3)C1 , give the reported concentration at 24 h.
530

For the compound shown here, N[C@]1(CO)CC[C@H](c2ccc3c(c2)CC[C@H](Cc2ccccc2)C3)C1 , give the reported concentration at 24 h.
300

* * *

experiment: Oral bioavailability in beagle dog at 0.3 mg/kg; type: ADME, organism-based, Canis lupus familiaris; settings: in vivo
outcome.measure: bioavailability (%)
Field format: number, assumed %, no unit text.

For the compound shown here, COc1ccccc1CC[C@@H]1CCc2cc([C@H]3CC[C@](N)(CO)C3)ccc2C1 [UDIFITIMOD] , give the reported bioavailability.
61

* * *

assay: Protein binding in dog assessed as bound fraction; format: ADME, Canis lupus familiaris; details: read-out: PB
outcome.measure: fraction unbound

For the molecule shown here, COc1ccccc1CC[C@@H]1CCc2cc([C@H]3CC[C@](N)(CO)C3)ccc2C1 , give the reported fraction unbound.
< 0.001

* * *

Please provide measured concentration at 4 h for the entries that follow.
test: Drug metabolism in Lewis rat blood assessed as concentration of parent compound at 2 mg/kg, po measured at 4 hrs by LC-MS/MS analysis; type: ADME, organism-based; conditions: read-out: Ct
Field format: number, assumed nM, no unit text.

For the molecule shown here, N[C@]1(CO)CC[C@H](c2ccc3c(c2)CC[C@@H](CCc2ccccc2)C3)C1 , give the reported concentration at 4 h.
130

For the molecule shown here, COc1cccc(CC[C@@H]2CCc3cc([C@H]4CC[C@](N)(CO)C4)ccc3C2)c1 , give the reported concentration at 4 h.
90

For the molecule shown here, COc1ccccc1CC[C@@H]1CCc2cc([C@H]3CC[C@](N)(CO)C3)ccc2C1 , give the reported concentration at 4 h.
40

For the molecule shown here, COc1ccc(CC2CCc3cc([C@H]4CC[C@](N)(CO)C4)ccc3C2)cc1 (stereo in doubt; 13b) , give the reported concentration at 4 h.
90
